# experimental-system: recombinant human Meningioma Expressed Antigen 5 (MGEA5), also referred to as O-GlcNAcase (OGA) (Homo sapiens, UniProt O60502)
# Construct: Full length OGA enzyme was purchased at OnGene (cat #TP322411); purchased OnGene (so in the source)
# Sequence (O60502 whole entry): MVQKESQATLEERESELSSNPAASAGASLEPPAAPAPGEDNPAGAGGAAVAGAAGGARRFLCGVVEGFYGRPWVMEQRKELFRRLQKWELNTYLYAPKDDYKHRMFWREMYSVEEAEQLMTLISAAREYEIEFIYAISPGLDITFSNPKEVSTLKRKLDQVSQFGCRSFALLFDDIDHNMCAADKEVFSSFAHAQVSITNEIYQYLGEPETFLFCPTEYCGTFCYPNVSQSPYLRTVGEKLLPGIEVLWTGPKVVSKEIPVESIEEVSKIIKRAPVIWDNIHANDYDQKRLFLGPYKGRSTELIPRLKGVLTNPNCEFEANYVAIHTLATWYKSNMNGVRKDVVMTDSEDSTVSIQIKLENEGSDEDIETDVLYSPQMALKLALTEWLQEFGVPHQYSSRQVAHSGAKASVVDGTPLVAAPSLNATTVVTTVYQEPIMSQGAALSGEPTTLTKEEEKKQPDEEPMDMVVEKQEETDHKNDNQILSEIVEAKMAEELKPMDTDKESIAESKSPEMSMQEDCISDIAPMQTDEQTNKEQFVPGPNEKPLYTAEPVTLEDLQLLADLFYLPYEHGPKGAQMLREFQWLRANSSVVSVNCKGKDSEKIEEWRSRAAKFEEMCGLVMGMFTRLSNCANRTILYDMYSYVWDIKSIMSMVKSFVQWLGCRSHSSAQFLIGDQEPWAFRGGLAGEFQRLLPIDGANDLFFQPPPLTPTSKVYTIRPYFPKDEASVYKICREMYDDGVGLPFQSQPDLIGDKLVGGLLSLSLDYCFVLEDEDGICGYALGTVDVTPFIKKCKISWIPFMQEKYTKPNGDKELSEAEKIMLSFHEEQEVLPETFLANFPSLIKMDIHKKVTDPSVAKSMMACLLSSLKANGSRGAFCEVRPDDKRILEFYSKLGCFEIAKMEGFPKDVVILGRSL
# experiment-notes: OGA biochemical assay: inhibition of hydrolysis of fluorescein mono-ß-D-N-Acetyl-Glucosamine (FM-GlcNAc), fluorescence readout
# experimental-setup: FM-GlcNAc substrate, read-out: Enzymatic hOGA, pIC50 (converted)
# Text: The assay is based on the inhibition of the hydrolysis of fluorescein mono-ß-D-N-Acetyl-Glucosamine (FM-GlcNAc) (Mariappa et al. 2015, Biochem J 470:255) by the recombinant human Meningioma Expressed Antigen 5 (MGEA5), also referred to as O-GlcNAcase (OGA). […] The fluorescence of the latter can be measured at excitation wavelength 485 nm and emission wavelength 538 nm. An increase in enzyme activity results in an increase in fluorescence signal. […]
The entries below come with measured log10 of IC50 values attached.
Hey, these are logged values: log10 of IC50, nM being the unit before logging.

In the examples that follow, each entry is paired with its recorded log10 of IC50.
{"substance-smiles": "CCCCn1ccc2c(Nc3c(C)cc(C(=O)NC)cc3C)nccc21", "value-measured": 0.66}
{"substance-smiles": "CCCCn1ccc2c(Nc3c(Cl)cncc3Cl)nccc21", "value-measured": 1.54}
{"substance-smiles": "CCCCn1ccc2c(Nc3c(C)cc(F)cc3C)nccc21", "value-measured": 0.43}
{"substance-smiles": "CC(C)=C(F)Cn1ccc2c(Nc3c(C)cc(-c4cnn(C)c4)cc3C)nccc21", "value-measured": 1.01}

Req: Look at this compound and give its reported log10 of IC50. `Cc1cc2cnn(C)c2c(C)c1Nc1nccc2c1ccn2CC(F)(F)C(C)C`
Resp: 0.02

Where these numbers come from: patent US20210277003A1
